- tgt: human NaV1.8 (Homo sapiens, UniProt Q9Y5Y9)
- Construct: The following NaV1.8 recombinant cell line was used for recordings: HEK-NaV1.8 (NM 006514.1)
- Sequence (Q9Y5Y9 whole entry): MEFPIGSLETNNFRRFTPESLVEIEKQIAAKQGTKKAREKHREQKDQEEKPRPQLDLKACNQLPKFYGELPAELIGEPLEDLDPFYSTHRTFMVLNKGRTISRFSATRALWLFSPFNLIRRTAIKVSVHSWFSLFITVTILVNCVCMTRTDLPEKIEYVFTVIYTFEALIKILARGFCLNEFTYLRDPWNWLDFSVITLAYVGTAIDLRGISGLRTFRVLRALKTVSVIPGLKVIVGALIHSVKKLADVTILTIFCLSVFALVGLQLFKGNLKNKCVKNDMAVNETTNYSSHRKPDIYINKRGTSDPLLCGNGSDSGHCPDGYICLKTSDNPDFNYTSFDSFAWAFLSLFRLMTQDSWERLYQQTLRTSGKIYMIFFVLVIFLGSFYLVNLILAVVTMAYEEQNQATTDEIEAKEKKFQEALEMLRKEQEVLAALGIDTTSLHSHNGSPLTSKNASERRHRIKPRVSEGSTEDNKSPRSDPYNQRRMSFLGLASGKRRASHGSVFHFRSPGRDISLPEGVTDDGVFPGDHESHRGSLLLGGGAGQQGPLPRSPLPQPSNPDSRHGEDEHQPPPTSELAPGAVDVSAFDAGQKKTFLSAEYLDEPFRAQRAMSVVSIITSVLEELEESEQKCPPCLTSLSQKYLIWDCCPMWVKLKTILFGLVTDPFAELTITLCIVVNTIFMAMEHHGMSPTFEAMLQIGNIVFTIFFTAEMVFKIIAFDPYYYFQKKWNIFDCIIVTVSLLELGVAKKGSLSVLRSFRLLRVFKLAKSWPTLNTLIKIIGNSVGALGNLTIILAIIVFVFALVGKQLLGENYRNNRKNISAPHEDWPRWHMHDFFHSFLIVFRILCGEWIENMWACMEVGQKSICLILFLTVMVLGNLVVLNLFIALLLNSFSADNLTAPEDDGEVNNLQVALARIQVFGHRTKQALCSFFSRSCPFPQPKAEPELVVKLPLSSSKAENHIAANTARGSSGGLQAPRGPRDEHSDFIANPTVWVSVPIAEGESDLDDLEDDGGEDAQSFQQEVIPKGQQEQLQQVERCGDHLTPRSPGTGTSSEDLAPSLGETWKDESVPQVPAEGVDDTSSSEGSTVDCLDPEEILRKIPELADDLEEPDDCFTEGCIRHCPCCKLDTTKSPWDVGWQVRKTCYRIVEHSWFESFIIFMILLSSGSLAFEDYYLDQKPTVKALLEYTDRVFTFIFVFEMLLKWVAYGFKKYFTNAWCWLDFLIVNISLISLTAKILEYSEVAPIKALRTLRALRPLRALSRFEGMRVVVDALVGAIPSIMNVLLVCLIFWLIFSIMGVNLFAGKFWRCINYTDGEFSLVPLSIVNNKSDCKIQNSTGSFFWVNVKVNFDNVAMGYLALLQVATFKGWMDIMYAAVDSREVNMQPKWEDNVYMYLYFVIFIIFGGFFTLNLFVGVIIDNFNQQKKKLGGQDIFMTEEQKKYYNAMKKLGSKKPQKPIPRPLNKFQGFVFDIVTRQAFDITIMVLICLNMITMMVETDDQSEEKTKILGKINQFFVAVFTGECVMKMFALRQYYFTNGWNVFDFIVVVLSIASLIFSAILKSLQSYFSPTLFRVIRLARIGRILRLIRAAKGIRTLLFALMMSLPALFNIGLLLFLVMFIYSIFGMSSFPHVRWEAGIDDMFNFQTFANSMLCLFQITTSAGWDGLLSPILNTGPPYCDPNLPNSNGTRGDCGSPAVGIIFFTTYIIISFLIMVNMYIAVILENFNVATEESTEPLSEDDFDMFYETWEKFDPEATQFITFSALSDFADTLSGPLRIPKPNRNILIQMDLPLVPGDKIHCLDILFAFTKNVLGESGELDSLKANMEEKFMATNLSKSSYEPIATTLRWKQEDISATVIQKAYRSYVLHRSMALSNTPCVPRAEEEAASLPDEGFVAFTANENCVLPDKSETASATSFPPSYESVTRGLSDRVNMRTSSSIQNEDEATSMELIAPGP
- Sequence (Q9NY72 23-215 partner): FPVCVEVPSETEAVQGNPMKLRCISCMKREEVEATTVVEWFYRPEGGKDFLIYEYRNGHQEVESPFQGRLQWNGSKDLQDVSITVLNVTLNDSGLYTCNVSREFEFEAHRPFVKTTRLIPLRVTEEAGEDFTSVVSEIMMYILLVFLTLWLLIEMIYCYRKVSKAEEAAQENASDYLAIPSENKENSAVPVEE
- protocol summary: Electrophysiology: automated whole-cell voltage-clamp (patch clamp, Qube384) recordings of sodium currents in HEK-NaV1.8 cells
- measurement parameters: potency data either taken from inactivated or resting state, read-out: Potency category (human NaV1.8 IC50)
- Procedure: Electrophysiology: Voltage-Clamp Recordings The following NaV1.8 recombinant cell line was used for recordings: HEK-NaV1.8 (NM 006514.1) with in (NM 018400.3). Sodium currents were measured using the patch clamp technique in the whole-cell configuration using the Qube384 (Sophion A/S, Copenhagen, Denmark) automated voltage clamp platform. […] The adjusted inhibition was calculated as follows: […]
# Lookup of reported IC50 keyed by entry

molecule	IC50
NS(=O)(=O)c1cccc(NC(=O)c2c(C(F)(F)F)cnn2CC2CCCCC2)c1	≤ 100 nM
Cc1c(C(C)(F)F)nn(CC2(F)CC2)c1C(=O)Nc1ccnc(S(N)(=O)=O)c1	100 to 1000 nM
NC(=O)c1cc(NC(=O)c2c(C(F)(F)F)c(C3CC3)nn2CC2CC(OC(F)(F)F)C2)ccn1 (single isomer, unassigned) [SC-219b]	≤ 100 nM
COc1cc(C(=O)Nc2cccc(S(C)(=O)=O)c2)n(CC2CCCCC2)n1	100 to 1000 nM
Cc1c(C(C)(F)F)nn(C[C@@H]2CC[C@H]2C(F)(F)F)c1C(=O)Nc1ccnc(C(N)=O)c1 (single isomer, unassigned) [SC-315a]	≤ 100 nM
Cc1nn(CC2CCCCC2)c(C(=O)Nc2cccc(S(C)(=O)=O)c2)c1C	100 to 1000 nM
NC(=O)c1cc(NC(=O)c2c(C(F)(F)F)c(OC(F)F)nn2C[C@H]2CCC(F)(F)C2)ccn1 [SC-158S]	≤ 100 nM
Cc1c(OC(F)F)nn(CC2CCC(F)(F)C2)c1C(=O)Nc1ccnc(C(N)=O)c1 (centres unmarked)	≤ 100 nM

###

- tgt: human NaV1.8 (Homo sapiens)
- Construct: The following NaV1.8 recombinant cell line was used for recordings: HEK-NaV1.8 (NM 006514.1)
- protocol summary: Electrophysiology: automated whole-cell voltage-clamp (patch clamp, Qube384) recordings of sodium currents in HEK-NaV1.8 cells
- measurement parameters: potency data either taken from inactivated or resting state, read-out: Potency category (human NaV1.8 IC50)
- Procedure: Electrophysiology: Voltage-Clamp Recordings The following NaV1.8 recombinant cell line was used for recordings: HEK-NaV1.8 (NM 006514.1) with in (NM 018400.3). Sodium currents were measured using the patch clamp technique in the whole-cell configuration using the Qube384 (Sophion A/S, Copenhagen, Denmark) automated voltage clamp platform. […] The adjusted inhibition was calculated as follows: […]

compound	tgt	IC50
NC(=O)c1cc(NC(=O)c2c(C(F)(F)F)c(C3CC3)nn2CC2CC(F)(F)C2)ccn1	human NaV1.8 (Homo sapiens)	≤ 0.1 µM
Cc1c(C(C)(F)F)nn(CC2(C)CCO2)c1C(=O)Nc1ccnc(S(N)(=O)=O)c1 (centres unmarked)	human NaV1.8 (Homo sapiens)	1 to 10 µM
Cc1c(C(C)(F)F)nn(CC2(C)CCC(F)(F)C2)c1C(=O)Nc1ccnc(S(C)(=O)=O)c1 (centres unmarked)	human NaV1.8 (Homo sapiens)	≤ 0.1 µM
COc1c(C(F)(F)F)nn(CC2CCC(F)(F)C2)c1C(=O)Nc1ccnc(C(N)=O)c1 (centres unmarked)	human NaV1.8 (Homo sapiens)	0.1 to 1 µM
NC(=O)c1cc(NC(=O)c2c(C(F)(F)F)c(OCC3CC3)nn2CC2CCC(F)(F)C2)ccn1 (racemic)	human NaV1.8 (Homo sapiens)	≤ 0.1 µM
Cc1nn(CC2CCC(F)(F)CC2)c(C(=O)Nc2cnnc(C(N)=O)c2)c1C(F)(F)F	human NaV1.8 (Homo sapiens)	0.1 to 1 µM
CS(=O)(=O)c1ccc(F)c(NC(=O)c2c(C(F)(F)F)cnn2CC2CCC(F)(F)CC2)c1	human NaV1.8 (Homo sapiens)	1 to 10 µM
Cc1c(C(F)(F)F)nn(CC2CCC(F)(F)CC2)c1C(=O)Nc1cccc(S(N)(=O)=O)n1	human NaV1.8 (Homo sapiens)	0.1 to 1 µM
